TARGET: Histamine H1 receptor (Homo sapiens)
Sequence (P35367 whole entry): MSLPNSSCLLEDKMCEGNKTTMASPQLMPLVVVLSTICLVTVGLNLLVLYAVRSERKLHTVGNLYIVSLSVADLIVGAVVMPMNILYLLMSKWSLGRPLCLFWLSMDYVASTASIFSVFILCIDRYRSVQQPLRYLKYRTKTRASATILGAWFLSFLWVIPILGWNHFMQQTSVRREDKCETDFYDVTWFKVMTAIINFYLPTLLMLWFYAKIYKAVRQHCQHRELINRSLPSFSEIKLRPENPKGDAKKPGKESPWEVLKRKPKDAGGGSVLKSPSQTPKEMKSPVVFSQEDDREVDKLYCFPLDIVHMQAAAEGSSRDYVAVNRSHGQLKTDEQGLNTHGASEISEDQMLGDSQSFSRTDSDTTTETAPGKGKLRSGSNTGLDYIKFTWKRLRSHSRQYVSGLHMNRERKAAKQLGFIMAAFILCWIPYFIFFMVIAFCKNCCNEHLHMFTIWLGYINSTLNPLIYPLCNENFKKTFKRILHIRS
ASSAY METHOD TEXT: Displacement of VUF13816-based fluorescent ligand 1 from Nluc-tagged human H1R expressed in HEK293T cells assessed as fold change incubated for 2 hrs by NanoBRET competition binding assay
TEST CONDITIONS: filed as antagonist
Square brackets hold non-standard residues; d marks the D form. Peptide text beside a SMILES is read from it. * marks the point of attachment. Propanoyl(3-Pip(4-O-2-BnPh)) = O=C(CCN1CCC(Oc2ccccc2Cc2ccccc2)CC1)*
Task for the reader: assign each of the following molecules its reported fold change (FC).
Would you mind answering with just the numeric figure?

Record request: fold change (FC) value, item CC(C)[C@H](NC(=O)CCN1CCC(Oc2ccccc2Cc2ccccc2)CC1)C(=O)N[C@@H](CO)C(=O)N[C@@H](C)C(=O)N[C@H](Cc1ccccc1)C(N)=O ({Propanoyl(3-Pip(4-O-2-BnPh))}-VSA[dF]-NH2)
2

Record request: fold change (FC) value, item CC(C)[C@H](NC(=O)CCN1CCC(Oc2ccccc2Cc2ccccc2)CC1)C(=O)N[C@@H](C)C(=O)N[C@@H](C)C(=O)N[C@H](Cc1ccccc1)C(N)=O ({Propanoyl(3-Pip(4-O-2-BnPh))}-VAA[dF]-NH2)
2

Record request: fold change (FC) value, item CC(C)[C@H](NC(=O)CCN1CCC(Oc2ccccc2Cc2ccccc2)CC1)C(=O)N[C@@H](CO)C(=O)N[C@@H](Cc1ccc(O)cc1)C(=O)N[C@H](Cc1ccccc1)C(N)=O ({Propanoyl(3-Pip(4-O-2-BnPh))}-VSY[dF]-NH2)
2

Record request: fold change (FC) value, item CC(C)[C@H](NC(=O)CCN1CCC(Oc2ccccc2Cc2ccccc2)CC1)C(=O)N[C@@H](CO)C(=O)N[C@@H](CO)C(=O)N[C@H](Cc1ccccc1)C(N)=O ({Propanoyl(3-Pip(4-O-2-BnPh))}-VSS[dF]-NH2)
2

###

TARGET: Histamine H1 receptor (Homo sapiens)
ASSAY METHOD TEXT: Binding affinity to human H1R expressed in CHO cells assessed as shift in histamine-mediated calcium response at 1 uM using Fluo-4AM as a substrate incubated for 1 hrs by calcium mobilization assay based fluorometric analysis
Format: cell-based
TEST CONDITIONS: filed as antagonist
Activity calls are given as the source filed them. The rule behind the calls is not given here. Square brackets hold non-standard residues; d marks the D form. Peptide text beside a SMILES is read from it. * marks the point of attachment. Propanoyl(3-Pip(4-O-2-BnPh)) = O=C(CCN1CCC(Oc2ccccc2Cc2ccccc2)CC1)*; BODIPY(FL) = CC1=CC(C)=[N+]2C1=Cc1ccc(CCC(=O)*)n1[B-]2(F)F; X2 = O=C(CCC1=[N+]2C(=Cc3ccc(-c4cccs4)n3[B-]2(F)F)C=C1)*; βAla = NCCC(=O)O
READOUT: Activity

C[C@H](NC(=O)[C@H](C)NC(=O)[C@H](Cc1ccccc1)NC(=O)CCN1CCC(Oc2ccccc2Cc2ccccc2)CC1)C(=O)NCCC(=O)N[C@@H](CCCCNC(=O)CCC1=[N+]2C(=Cc3ccc(-c4cccs4)n3[B-]2(F)F)C=C1)C(N)=O ({Propanoyl(3-Pip(4-O-2-BnPh))}-FAA[βAla]K(X2)-NH2)	Active
Cc1cc(C)n2c1C=C1C=CC(CCC(=O)NCCCC[C@H](NC(=O)CCNC(=O)[C@H](C)NC(=O)[C@H](C)NC(=O)[C@H](Cc3ccccc3)NC(=O)CCN3CCC(Oc4ccccc4Cc4ccccc4)CC3)C(N)=O)=[N+]1[B-]2(F)F ({Propanoyl(3-Pip(4-O-2-BnPh))}-FAA[βAla]K(BODIPY(FL))-NH2)	Active
